Parameter AUC(0-t): see the listing below.
Assay: AUC (0 to t) in Sprague-Dawley rat at 10 mg/kg, po by LC-ESI-MS analysis
Format: ADME, organism-based
Conditions: in vivo
assay.metric: AUC(0-t)

[
  {
    "compound": "Cc1cc(OCCCS(C)(=O)=O)cc(C)c1-c1cccc(COc2ccc3c(c2)OC[C@H]3CC(=O)O)c1",
    "assay.metric": "AUC(0-t)",
    "result": "137 µg·h/mL"
  },
  {
    "compound": "CC#C[C@@H](CC(=O)O)c1ccc(OC[C@H]2COc3ccc(Cl)cc3O2)cc1",
    "assay.metric": "AUC(0-t)",
    "result": "656 µg·h/mL"
  },
  {
    "compound": "CC#C[C@@H](CC(=O)O)c1ccc(OC[C@H]2COc3ccc(C)cc3O2)cc1",
    "assay.metric": "AUC(0-t)",
    "result": "65.2 µg·h/mL"
  },
  {
    "compound": "CC#C[C@@H](CC(=O)O)c1ccc(OC[C@H]2COc3ccccc3O2)cc1",
    "assay.metric": "AUC(0-t)",
    "result": "275 µg·h/mL"
  }
]
